meta.source: patent US20250011410A1

- Tested target: T1, canine NGF tagged at the C-terminus with the Flag tag (canine, UniProt A0A8I3PYI3 122-241)
- T1 construct: mature; 'mature' rests on the words 'processed form'; also called feline NGF (processed form identical)
- T1 sequence (A0A8I3PYI3 entry or part of it): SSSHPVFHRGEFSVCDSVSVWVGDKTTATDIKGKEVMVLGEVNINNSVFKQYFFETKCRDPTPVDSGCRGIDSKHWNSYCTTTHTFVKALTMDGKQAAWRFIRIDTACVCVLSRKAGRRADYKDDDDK
- Measurement notes: SPR, Biacore T200; antibody captured on anti-feline CM5 chip, NGF as analyte; 1:1 model
Assay metric: koff (s⁻¹)
Provide only the numeric value, understood in s⁻¹.

Using the record for SC-184_102-Arg (antibody, V domains shown, SC-184_102 containing the G55R mutation in VH; feline antibody captured on an anti-feline chip) VH: DVQLVESGGDLVKPGGSLRLTCVASGLSLTSNSMSWVRQAPGKGLQWVSTIWSNRGTYYTDSVKGRFTISKDNAENTLYLQMNNLKTEDTATYYCASIYYYEAEYLHWYFDFWGQGALVTVSS VL: EIQMTQSPTSLSASVGDRVTITCRASKGISNNLSWYQQTPGKAPKLLIYAQSNLHSGVPSRFSGSGSGTDFTLTISSLQPEDFATYYCQQGYKWPLTFGGGTKLEIT , report its koff.
4.43e-05

Using the record for felinized clone 101 (antibody, V domains shown) VH: DVQLVESGGDLVKPGGSLRLTCVASGLSLTSSSMSWVRQAPGKGLQWVSTIYSNGGTYYTDSVKGRFTISKDNAENTLYLQMNNLKTEDTATYYCASIYYYDADYLHWYFDFWGQGALVTVSS VL: EIQMTQSPTSLSASVGDRVTITCRASEGISNNLSWYQQTPGKAPKLLIYATSNLHSGVPSRFSGSGSGTDFTLTISSLQPEDFATYYCQQGYKWPLTFGGGTKLEIT , report its koff.
0.00138
